Test: A CellTox Green Cytotoxicity Assay to monitor cytotoxicity in HEK293 cells - 16 hour (AID 1224888); also: nearly all actives have a fitted effect of over 35% in size
Details: CellTox Green fluorescence; series mostly up to 76.8 µM
Records with an inconclusive call do not appear. Active and inactive are the calls of the source. Calls follow the shape of the dose curve; as a rule, active = well fitted activation curve with a large enough effect in the repeat runs; inconclusive = weak or mixed curves; inactive = flat fitted curve, though single readings scatter.
quantityMeasured: outcome

>>> resultvalue("O=C1CN2CCOC2(c2ccccc2Cl)c2cc(Cl)ccc2N1 (stereo not drawn)")
"inactive"
>>> resultvalue("ClCCCN1CCN(c2cccc(Cl)c2)CC1")
"inactive"
>>> resultvalue("COC(=O)c1ccccc1S(=O)(=O)NC(=O)N(C)c1nc(C)nc(OC)n1")
"inactive"

* * *

Molecular target: Aromatase (Homo sapiens)
Assay: qHTS assay to identify aromatase inhibitors (AID 743083); also: nearly all actives have a fitted effect of over 55% in size
Conditions: MCF-7 aro ERE, testosterone-driven ERE luciferase, 24 h; series mostly up to 70.3 µM
Records with an inconclusive call do not appear. Calls of active or inactive are those of the source. Calls follow the shape of the dose curve; as a rule, active = well fitted inhibition curve with a large enough effect in the repeat runs; inconclusive = weak or mixed curves; inactive = no such curve, though single readings can be large or run the other way.
Return exactly one item of active, inactive

Request: I'd appreciate the recorded outcome for O=C(O)c1ccc2[nH]cc(CCCCN3CC=C(c4ccccc4)CC3)c2c1 from this test.
Response: inactive

Request: I'd appreciate the recorded outcome for Fc1ccc(C2(Cn3cncn3)OC2c2ccccc2Cl)cc1 (stereo not drawn) from this test.
Response: active

Request: I'd appreciate the recorded outcome for O=C1OC(c2ccc(O)c(S(=O)(=O)O)c2)(c2ccc(O)c(S(=O)(=O)O)c2)c2c(Br)c(Br)c(Br)c(Br)c21 from this test.
Response: inactive

* * *

Assay: Human pregnane X receptor (PXR) small molecule agonists, qHTS cell viability counter screen (AID 1346977); also: nearly all actives have a fitted effect of over 50% in size
Conditions: PXR-Luc HepG2 viability, CellTiter-Fluor, 24 h; series mostly up to 92.4 µM
Inconclusive results are not listed. Activity calls are given as the source filed them. Calls follow the shape of the dose curve; as a rule, active = well fitted cell-killing curve with a large enough effect in the repeat runs; inconclusive = weak or mixed curves, or effect the other way; inactive = flat fitted curve, though single readings scatter.
Return exactly one item of active, inactive

Request: I'd appreciate the recorded outcome for Cc1cnc[nH]1 from this test.
Response: inactive

Request: I'd appreciate the recorded outcome for [As]#[In] from this test.
Response: inactive

Request: I'd appreciate the recorded outcome for ClCC(Cl)Cl from this test.
Response: inactive

Request: I'd appreciate the recorded outcome for c1cc[c]([Hg][c]2ccccc2)cc1 from this test.
Response: active

Request: I'd appreciate the recorded outcome for CSc1nc(N=[N+]=[N-])nc(NC(C)C)n1 from this test.
Response: inactive

Request: I'd appreciate the recorded outcome for COc1ncc(F)c2nc(S(=O)(=O)Nc3c(F)cccc3F)nn12 from this test.
Response: inactive

Request: I'd appreciate the recorded outcome for CC1=NNC(=O)N(/N=C/c2cccnc2)C1 from this test.
Response: inactive

Request: I'd appreciate the recorded outcome for COP(=S)(OC)Oc1c(Cl)cc(C)cc1Cl from this test.
Response: inactive

Request: I'd appreciate the recorded outcome for N#CCCC#N from this test.
Response: inactive

Request: I'd appreciate the recorded outcome for O=[N+]([O-])c1cc(Cl)c(Cl)c(Cl)c1 from this test.
Response: inactive

Request: I'd appreciate the recorded outcome for CC1CCC(=O)O1 (stereo not given) from this test.
Response: inactive

Request: I'd appreciate the recorded outcome for CC(COc1ccc(Oc2ccccc2)cc1)Oc1ccccn1 (stereo not given) from this test.
Response: inactive

Request: I'd appreciate the recorded outcome for COc1cccc(C(=O)NN(C(=O)c2cc(C)cc(C)c2)C(C)(C)C)c1C from this test.
Response: inactive

Request: I'd appreciate the recorded outcome for O=S(=O)(O)C(F)(F)C(F)(F)C(F)(F)C(F)(F)C(F)(F)C(F)(F)F from this test.
Response: inactive

Request: I'd appreciate the recorded outcome for ClC(Cl)(Cl)C(Cl)(Cl)Cl from this test.
Response: inactive

Request: I'd appreciate the recorded outcome for CCC/C(=N\OCC)C1=C(O)CC(CC(C)SCC)CC1=O (stereo not given) from this test.
Response: inactive

Request: I'd appreciate the recorded outcome for CCOP(=S)(Oc1cnc(C(C)(C)C)nc1)OC(C)C (stereo not given) from this test.
Response: inactive

Request: I'd appreciate the recorded outcome for CCCSP(=O)(OCC)Oc1ccc(Br)cc1Cl (stereo not given) from this test.
Response: inactive

Request: I'd appreciate the recorded outcome for CC(C)(C)C(=O)C(Oc1ccc(Cl)cc1)n1cncn1 (stereo not given) from this test.
Response: inactive

Request: I'd appreciate the recorded outcome for Cc1nnc2n1-c1sc(CCC(=O)N3CCOCC3)cc1C(c1ccccc1Cl)=NC2 from this test.
Response: inactive

Request: I'd appreciate the recorded outcome for CCCCc1c(C)nc(NCC)[nH]c1=O from this test.
Response: inactive

Request: I'd appreciate the recorded outcome for CC(C)[N+](=O)[O-] from this test.
Response: inactive

Request: I'd appreciate the recorded outcome for OCCBr from this test.
Response: inactive

Request: I'd appreciate the recorded outcome for O=C(Cc1ccccc1)OCc1ccccc1 from this test.
Response: inactive

Request: I'd appreciate the recorded outcome for CN1CCN(C(=O)O[C@H]2c3nccnc3C(=O)N2c2ccc(Cl)cn2)CC1 from this test.
Response: inactive

Request: I'd appreciate the recorded outcome for C=C(C)CN(CC)c1c([N+](=O)[O-])cc(C(F)(F)F)cc1[N+](=O)[O-] from this test.
Response: inactive

Request: I'd appreciate the recorded outcome for CNC(=O)O/N=C(\C)SC from this test.
Response: inactive

Request: I'd appreciate the recorded outcome for C#C[C@]1(O)C=C[C@H]2[C@@H]3CCC4=CC(=O)CC[C@@H]4[C@H]3CC[C@@]21CC from this test.
Response: inactive

Request: I'd appreciate the recorded outcome for CC(Oc1ccc(Oc2ncc(C(F)(F)F)cc2Cl)cc1)C(=O)O (stereo not given) from this test.
Response: inactive

Request: I'd appreciate the recorded outcome for CCSC(=O)N(CC)C1CCCCC1 from this test.
Response: inactive

Request: I'd appreciate the recorded outcome for C[C@]12CC[C@H]3[C@@H](CCC4=CC(=O)CC[C@@]43C)[C@@H]1CC[C@@H]2C(=O)O from this test.
Response: inactive

Request: I'd appreciate the recorded outcome for C=CC1CC=CCC1 (stereo not given) from this test.
Response: inactive

Request: I'd appreciate the recorded outcome for CCC#N from this test.
Response: inactive

Request: I'd appreciate the recorded outcome for CCCCN(CCCCO)N=O from this test.
Response: inactive

Request: I'd appreciate the recorded outcome for CCOP(=S)(OCC)SCSc1ccc(Cl)cc1 from this test.
Response: inactive

Request: I'd appreciate the recorded outcome for COP(=S)(OC)Oc1ccc(S(N)(=O)=O)cc1 from this test.
Response: inactive

Request: I'd appreciate the recorded outcome for CCC(C)(C)c1cc(-n2nc3ccccc3n2)c(O)c(C(C)(C)CC)c1 from this test.
Response: inactive

Request: I'd appreciate the recorded outcome for CCCCCCBr from this test.
Response: inactive

Request: I'd appreciate the recorded outcome for N#CC(Cl)(Cl)Cl from this test.
Response: inactive

Request: I'd appreciate the recorded outcome for C[C@@H]1CN(C2CCC(C#N)(c3ccc(F)cc3)CC2)CC[C@]1(C(=O)O)c1ccccc1 (stereo not given in full) from this test.
Response: inactive

Request: I'd appreciate the recorded outcome for CC(C)NCC(O)c1ccc(N)c(C#N)c1 (stereo not given) from this test.
Response: inactive

Request: I'd appreciate the recorded outcome for c1ccc(N2CCNCC2)cc1 from this test.
Response: inactive

Request: I'd appreciate the recorded outcome for OC(c1ccccc1)(c1ccccc1)C1CCNCC1 from this test.
Response: inactive

Request: I'd appreciate the recorded outcome for N#Cc1ccncc1 from this test.
Response: inactive

Request: I'd appreciate the recorded outcome for ClC(Cl)Br from this test.
Response: inactive

* * *

Experiment: qHTS assay to identify small molecule antagonists of the estrogen related receptor (ERR) signaling pathway from Tox21 library (AID 1224848); also: nearly all actives have a fitted effect of over 50% in size
Settings: ERR reporter cell line, luciferase antagonist mode, 18 h; series mostly up to 92.4 µM
Results filed as inconclusive are left out. Active and inactive are the calls of the source. Calls follow the shape of the dose curve; as a rule, active = well fitted inhibition curve with a large enough effect in the repeat runs; inconclusive = weak or mixed curves; inactive = no such curve, though single readings can be large or run the other way.
Return exactly one item of active, inactive

Request: I'd appreciate the recorded outcome for CNC(=O)N(C)c1nc2ccccc2s1 from this test.
Response: inactive

Request: I'd appreciate the recorded outcome for CCNc1nc(NC(C)C)nc(OC)n1 from this test.
Response: inactive

Request: I'd appreciate the recorded outcome for CCCCc1c(C)nc(NCC)[nH]c1=O from this test.
Response: inactive

Request: I'd appreciate the recorded outcome for COC(=O)c1ccccc1S(=O)(=O)NC(=O)N(C)c1nc(C)nc(OC)n1 from this test.
Response: inactive

Request: I'd appreciate the recorded outcome for N#CC(CCc1ccc(Cl)cc1)(Cn1cncn1)c1ccccc1 (configuration not stated) from this test.
Response: active

Request: I'd appreciate the recorded outcome for Cc1nnc2n1-c1sc(CCC(=O)N3CCOCC3)cc1C(c1ccccc1Cl)=NC2 from this test.
Response: inactive

Request: I'd appreciate the recorded outcome for CC(=O)Nc1cc([As](=O)(O)O)ccc1O from this test.
Response: inactive

Request: I'd appreciate the recorded outcome for O=[N+]([O-])c1cccc2c([N+](=O)[O-])cccc12 from this test.
Response: active

Request: I'd appreciate the recorded outcome for Fc1ccc(C2(Cn3cncn3)OC2c2ccccc2Cl)cc1 (configuration not stated) from this test.
Response: active

Request: I'd appreciate the recorded outcome for COC(=O)COc1ccc(Cl)cc1Cl from this test.
Response: inactive

Request: I'd appreciate the recorded outcome for CNNC from this test.
Response: inactive

Request: I'd appreciate the recorded outcome for COc1cccc2c1cc([N+](=O)[O-])c1c(C(=O)O)cc3c(c12)OCO3 from this test.
Response: active

Request: I'd appreciate the recorded outcome for CC1CCC(=O)O1 (configuration not stated) from this test.
Response: inactive

Request: I'd appreciate the recorded outcome for Cc1ncc2n1-c1ccc(Cl)cc1C(c1ccccc1F)=NC2 from this test.
Response: inactive

Request: I'd appreciate the recorded outcome for ClC(Br)Br from this test.
Response: inactive

Request: I'd appreciate the recorded outcome for CCCCC(=O)Cl from this test.
Response: inactive

Request: I'd appreciate the recorded outcome for ClCCCN1CCN(c2cccc(Cl)c2)CC1 from this test.
Response: inactive
